- System: nitric oxide synthesis in RAW 264.7 cells
- experiment: Suppression of nitric oxide synthesis (nitrite, Griess reagent) in LPS-stimulated RAW 264.7 cells
- Type: cell-based, murine
- condition: Mus musculus, RAW264.7, 20 h, read-out: IC50 (inhibitory concentration at 50%) of nitric oxide synthesis
pIC50: −log10 of the molar value.

compound | tested system | pIC50
CCCC=C1OC(=O)c2ccccc21 [butylidene phthalide] | nitric oxide synthesis in RAW 264.7 cells | 3.39
